system: PYY gene; assay: Expression level of PYY gene in NCI-H716 cells (qRT-PCR); format: cell-based; settings: Homo sapiens; NCI-H716 cells, final concentration 100 μM, 12 h; blank group = 1.0; read-out: expression level of the PYY gene relative to the blank group
Reported fold induction at 100 µM is given for each of the following compounds.
Answer with a number only.

Before answering, review these 5 worked examples.
[
  {
    "compound": "COC(=O)C(O)Cc1ccc(O)cc1 (centres unmarked)",
    "target_under_test": "PYY gene",
    "fold induction at 100 µM": 4.5
  },
  {
    "compound": "O=C(O)/C=C/c1ccc(O)c(O)c1",
    "target_under_test": "PYY gene",
    "fold induction at 100 µM": 3.5
  },
  {
    "compound": "O=C(/C=C/c1ccc(O)c(O)c1)O[C@@H]1C[C@](OC(=O)/C=C/c2ccc(O)c(O)c2)(C(=O)O)C[C@@H](O)[C@H]1O",
    "target_under_test": "PYY gene",
    "fold induction at 100 µM": 2.3
  },
  {
    "compound": "O=C(O)CCc1ccc(O)c(O)c1 [TCI-LTF-09, Dihydrocaffeic acid]",
    "target_under_test": "PYY gene",
    "fold induction at 100 µM": 4.9
  },
  {
    "compound": "O=C(O)c1ccc(O)cc1 [TCI-LTF-14, 4-Hydroxyphenolic acid]",
    "target_under_test": "PYY gene",
    "fold induction at 100 µM": 3.6
  }
]

Enquiry: Tell me its fold induction at 100 µM on PYY gene: O=C(/C=C/c1ccc(O)c(O)c1)O[C@@H]1C[C@](O)(C(=O)O)C[C@@H](O)[C@H]1O
Return: 5.3

Enquiry: Tell me its fold induction at 100 µM on PYY gene: O=c1cc(-c2ccc(O)c(O)c2)oc2cc(O)cc(O)c12
Return: 3.6

Enquiry: Tell me its fold induction at 100 µM on PYY gene: O=C(/C=C/c1ccc(O)c(O)c1)OC[C@H]1O[C@@H](OCCc2ccc(O)c(O)c2)[C@H](O)[C@@H](O)[C@@H]1O [TCI-LTF-12, Calceolarioside B]
Return: 5.6
